Tested on: SNB-75 CNS
assay_method_text: NCI-60 one-dose screen, 48 h (100 = growth as untreated, 0 = no growth, -100 = all killed)
experimental_context: 10 µM unless noted
The panel holds about 83,000 compounds, 20% with a hit somewhere; the sample as a whole holds those more often.

{"columns": ["test_smiles", "unit_descriptor", "growth"],
 "data": [
  ["C=CCn1c(SCC(=O)Nc2ccc(/C(C)=N/O)cc2)nnc1-c1cc(-c2ccc(S(N)(=O)=O)cc2)nc2ccccc12", "%", 54.2],
  ["Cc1nn(-c2ccccc2)c(N)c1N=C1NC(=O)/C(=C/c2ccc(Br)cc2)S1", "%", 85.2],
  ["CCN1CCN(CC(=O)Nc2nc3ccc(NCc4ccc(F)cc4)cc3s2)CC1", "%", 90.8],
  ["S=c1[nH]c(=S)c2c(-c3ccccc3)c(-c3ccccc3)oc2[nH]1", "%", 95.2],
  ["O=C1/C(=C/c2ccccn2)NC(=S)N1c1ccccc1Cl", "%", 82]
]}

Recorded values, source PubChem BioAssay (NCI).
